Where these numbers come from: ChEMBL document CHEMBL4689842

# Tested on: Fibroblast
# methodDescription: Multiplex assay against human fibroblast
# Type: toxicity, cell-based
# assayContext: 12 h, 1 µM, compound concentration 1 uM, replicate 2
For each entry below, report its Population Pyknosed Nuclei (%) value.
One number for each entry, in %.

Solved cases below.
# molecule, targetOfAssay, Population Pyknosed Nuclei (%)
records = [
    ("CC[C@@H]1C(=O)N(C)c2cnc(Nc3ccc(C(=O)NC4CCN(C)CC4)cc3OC)nc2N1C1CCCC1", "Fibroblast", 4),
    ("Oc1cccc(-c2nc(N3CCOCC3)c3oc4ncccc4c3n2)c1", "Fibroblast", 26),
    ("Cc1c(Nc2ccc(S(=O)(=O)N3CCN(C)CC3)cc2F)nc2ccc(-c3cnn(C4CC4)c3)cn2c1=O", "Fibroblast", 10),
    ("N#CCNC(=O)c1ccc(-c2ccnc(Nc3ccc(N4CCOCC4)cc3)n2)cc1", "Fibroblast", 9),
]

Hi there! I need Population Pyknosed Nuclei (%) for each item below, if you can.
1. C[C@@H](Oc1cc(-n2cnc3ccc(CN4CCN(C)CC4)cc32)sc1C(N)=O)c1ccccc1C(F)(F)F
2. Cl.Cn1c2c(c3ccc(Cl)c(Cl)c31)C(C#N)C1(CCNCC1)NC2=O (stereo not drawn)
3. CCOc1ccn(-c2ccc(F)cc2)c(=O)c1C(=O)Nc1ccc(Oc2ccnc(N)c2Cl)c(F)c1
4. CCCc1cc(C)[nH]c(=O)c1CNC(=O)c1cc(-c2ccc(N3CCN(C(C)C)CC3)nc2)cc2c1cnn2C(C)C

Output:
16
6
3
9

====

# Test system: U2OS
# methodDescription: Multiplex assay against U2OS
# Format: toxicity, cell-based
# assayContext: human, 48 h, 1 µM, compound concentration 1 uM, replicate 2
Label rule, in plain words: Population Healthy Nuclei (%) of 80% and up is criterion met, under 80% is criterion not met.

Here are 5 molecules together with their reported answers.
# molecule, assignedClass
records = [
    ("CC(/C=C1\\SC(=S)N(CCCC(=O)Nc2ccc(C(=O)O)c(O)c2)C1=O)=C\\c1ccccc1", "criterion met"),
    ("CC(C)c1cc(Nc2nc(N3CCC[C@H](N)C3)ncc2C(N)=O)cc(C(C)C)n1", "criterion not met"),
    ("CC(C)C[C@H](NC(=O)[C@H](Cc1ccccc1)NC(=O)CNC(=O)CNC(=O)[C@@H](N)Cc1ccc(O)cc1)C(=O)O", "criterion met"),
    ("CN(c1cc(C(F)(F)F)nc(OCCC(=O)O)n1)c1cccc2c1CCC2", "criterion met"),
    ("CC(C)[C@H](CO)Nc1nc(Nc2cccc(Cl)c2)c2ncn(C(C)C)c2n1", "criterion met"),
]

Task: Check the entry `Cc1ccc(S(=O)(=O)NC2c3ccccc3Oc3ccccc32)cc1` : does Population Healthy Nuclei (%) equal or exceed 80%?
Output: criterion met

Task: Check the entry `Oc1cccc(-c2nc(N3CCOCC3)c3oc4ncccc4c3n2)c1` : does Population Healthy Nuclei (%) equal or exceed 80%?
Output: criterion not met

====

For each entry below, report its Population Mitochondria Different-Phenotype (%) value.
# Tested on: Fibroblast
# methodDescription: Multiplex assay against human fibroblast
# Format: toxicity, cell-based
# assayContext: 24 h, 10 µM, compound concentration 10 uM, replicate 1
One number for each entry, in %.

# molecule, quantitativeReadout
rows = [
    ("c1ccc(-c2oc3ncnc(NC[C@@H]4CCCO4)c3c2-c2ccccc2)cc1", 51),
    ("CCOc1ccn(-c2ccc(F)cc2)c(=O)c1C(=O)Nc1ccc(Oc2ccnc(N)c2Cl)c(F)c1 [BMS-777607]", 4),
    ("CC[C@@H]1C(=O)N(C)c2cnc(Nc3ccc(C(=O)NC4CCN(C)CC4)cc3OC)nc2N1C1CCCC1 [BI-2536]", 21),
    ("NC(=O)c1ccc2nc(-c3ccc(C4(N)CCC4)cc3)c(-c3ccccc3)n2n1 [BAY-1125976]", 2),
    ("CC(/C=C1\\SC(=S)N(CCCC(=O)Nc2ccc(C(=O)O)c(O)c2)C1=O)=C\\c1ccccc1", 6),
]

Hi there! I need Population Mitochondria Different-Phenotype (%) for each item below, if you can.
1. CC[C@@]1(O)C(=O)OCc2c1cc1n(c2=O)Cc2cc3ccccc3nc2-1 [CAMPTOTHECIN]
2. CN1C(=O)[C@@H](NC(=O)c2cc3ccccc3[nH]2)N=C(c2ccccc2)c2ccccc21 [DEVAZEPIDE]
3. CC(C)c1cc(Nc2nc(N3CCC[C@H](N)C3)ncc2C(N)=O)cc(C(C)C)n1
4. Cl.Cn1c2c(c3ccc(Cl)c(Cl)c31)C(C#N)C1(CCNCC1)NC2=O (centres undefined)

Output:
1: 9; 2: 9; 3: 44; 4: 10
